# target_entity: human A1 AR (Homo sapiens)
# Construct: expressed in transfected cells; host or cells: CHO cells
# Sequence (P30542 1-326): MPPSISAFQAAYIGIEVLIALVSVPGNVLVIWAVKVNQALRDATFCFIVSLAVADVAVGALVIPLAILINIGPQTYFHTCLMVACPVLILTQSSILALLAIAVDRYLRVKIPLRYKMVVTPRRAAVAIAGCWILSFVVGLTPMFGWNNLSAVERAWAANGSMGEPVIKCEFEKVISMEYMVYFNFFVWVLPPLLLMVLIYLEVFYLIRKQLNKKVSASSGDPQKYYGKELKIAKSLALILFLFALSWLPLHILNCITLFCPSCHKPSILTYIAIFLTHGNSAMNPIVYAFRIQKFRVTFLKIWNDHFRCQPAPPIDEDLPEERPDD
# test_details: Radioligand binding assay at human A1 AR vs. [^3H]CCPA
# conditions_used: human (h); CHO cell membranes; n = 3
# Protocol: Membrane preparations and radioligand binding assays at rat A1 (rat brain cortex) and rat A2A ARs (rat brain striatum) were performed as previously described (Ozola et al., [2003]; Alnouri et al., [2015]). […] The synthesized tetrahydropyrazino[2,1-f ]purinediones 13–20 were evaluated in radioligand binding assays for their affinity to A1 ARs of rat brain cortical membrane and to A2A ARs of rat brain striatal membrane preparations. […]
observation_type: Ki (nM)

Known results for molecules:
- Cn1c(=O)c2c(nc3n2CCN(Cc2ccc(Cl)c(Cl)c2)C3)n(C2CC2)c1=O [Compound 17]: 1130
- CCn1c(=O)c2c(nc3n2CCN(Cc2ccc(Br)cc2)C3)n(C)c1=O [Compound 14c]: 1350
- C#CCn1c(=O)c2c(nc3n2CCN(Cc2cccc(OC)c2)C3)n(CC)c1=O [Compound 20g]: 124

(P) CCn1c(=O)c2c(nc3n2CCN(Cc2cc(C(F)(F)F)ccc2Cl)C3)n(C)c1=O [Compound 14m]
(Q) CCn1c(=O)c2c(nc3n2CCN(Cc2cc(F)cc(C(F)(F)F)c2)C3)n(C)c1=O [Compound 14p]
Query: Just curious, which one has the larger Ki reading, P or Q ? Indicate which entry you chose by stating its label.
Response: Q

(A) CCn1c(=O)c2c(nc3n2CCN(Cc2cccc(Br)c2)C3)n(C)c1=O [Compound 14b]
(B) CCn1c(=O)c2c(nc3n2CCN(Cc2cccc(Cl)c2)C3)n(C)c1=O [Compound 14i]
Query: Could you determine which record has the numerically smaller Ki? Candidates: A and B Indicate which entry you chose by stating its label.
Response: A
